Provenance of the data: patent EP3807270B1

biological target: hERG channel (Homo sapiens); construct: expressed in transfected cells; host or cells: CHO (Chinese hamster ovary); test: hERG channel inhibition assay (patch-clamp, CHO hERG cells); format: cell-based; settings: safety ratio; TLR9 IC50 of ER compounds from Table 1
metric: hERG IC20 / TLR9 IC50

As a guide, the following entries are already answered.
compound	hERG IC20 / TLR9 IC50
C[C@@H]1CN(c2ccc(C#N)c3ncccc23)C[C@H](CN2CCN(c3cnc4c(c3)CNC4)CC2)O1 [Example 10]	>187.3
C[C@@H]1CN(c2ccc(C#N)c3ncccc23)C[C@H](CN2CCN(c3cc4c(cn3)CNCC4)CC2)O1 [Example 19]	>158.3

Continue with the next compound.
Input line: Which measured hERG IC20 / TLR9 IC50 value corresponds to C[C@@H]1Cc2cnc(N3CCN(C[C@H]4CN(c5ccc(C#N)c6ncccc56)C[C@@H](C)O4)CC3)cc2CN1 (single isomer, unassigned) [Example 77] ?
Output line: >86.9

---

biological target: hERG channel (Homo sapiens); construct: expressed in transfected cells; host or cells: CHO (Chinese hamster ovary); assay: hERG channel inhibition assay (patch-clamp, CHO hERG cells); format: cell-based; details: safety ratio; TLR9 IC50 of ER compounds from Table 1
metric: hERG IC20 / TLR9 IC50

As a guide, the following entries are already answered.
compound	obs_value
C[C@@H]1CN(c2ccc(C#N)c3ncccc23)C[C@H](CN2CCN(c3ccc4c(c3)C(O)CNC4)CC2)O1 (stereo partly drawn)	>222.7
C[C@@H]1Cc2cc(N3CCN(C[C@H]4CN(c5ccc(C#N)c6ncccc56)C[C@@H](C)O4)CC3)ncc2CN1 (single isomer, unassigned)	>120.91
C[C@@H]1CN(c2ccc(C#N)c3ncsc23)C[C@H](CN2CCN(c3cnc4c(c3)CNC4)CC2)O1	>207.5
C[C@@H]1CN(c2ccc(C#N)c3ncccc23)C[C@H](CN2CCN(c3cc4c(cn3)CCNC4)CC2)O1	>139.1

Input line: Which measured hERG IC20 / TLR9 IC50 value corresponds to C[C@@H]1CN(c2ccc(C#N)c3ncccc23)C[C@H](CN2CCN(c3cc4c(cn3)C[C@H](C)NC4)CC2)O1 (single isomer, unassigned) ?
Output line: >102.7

Input line: Which measured hERG IC20 / TLR9 IC50 value corresponds to C[C@@H]1CN(c2ccc(C#N)c3ncccc23)C[C@H](CN2CC3(C2)CN(c2cnc4c(n2)CCNC4)CCO3)O1 ?
Output line: > 144.9

---

target: hERG channel (Homo sapiens, UniProt Q12809); construct: expressed in transfected cells; host or cells: CHO (Chinese hamster ovary); assay: hERG channel inhibition assay (patch-clamp, CHO hERG cells); format: cell-based; details: human, CHO cells stably expressing hERG; CHO hERG cells, whole-cell patch-clamp
Sequence (Q12809 whole entry): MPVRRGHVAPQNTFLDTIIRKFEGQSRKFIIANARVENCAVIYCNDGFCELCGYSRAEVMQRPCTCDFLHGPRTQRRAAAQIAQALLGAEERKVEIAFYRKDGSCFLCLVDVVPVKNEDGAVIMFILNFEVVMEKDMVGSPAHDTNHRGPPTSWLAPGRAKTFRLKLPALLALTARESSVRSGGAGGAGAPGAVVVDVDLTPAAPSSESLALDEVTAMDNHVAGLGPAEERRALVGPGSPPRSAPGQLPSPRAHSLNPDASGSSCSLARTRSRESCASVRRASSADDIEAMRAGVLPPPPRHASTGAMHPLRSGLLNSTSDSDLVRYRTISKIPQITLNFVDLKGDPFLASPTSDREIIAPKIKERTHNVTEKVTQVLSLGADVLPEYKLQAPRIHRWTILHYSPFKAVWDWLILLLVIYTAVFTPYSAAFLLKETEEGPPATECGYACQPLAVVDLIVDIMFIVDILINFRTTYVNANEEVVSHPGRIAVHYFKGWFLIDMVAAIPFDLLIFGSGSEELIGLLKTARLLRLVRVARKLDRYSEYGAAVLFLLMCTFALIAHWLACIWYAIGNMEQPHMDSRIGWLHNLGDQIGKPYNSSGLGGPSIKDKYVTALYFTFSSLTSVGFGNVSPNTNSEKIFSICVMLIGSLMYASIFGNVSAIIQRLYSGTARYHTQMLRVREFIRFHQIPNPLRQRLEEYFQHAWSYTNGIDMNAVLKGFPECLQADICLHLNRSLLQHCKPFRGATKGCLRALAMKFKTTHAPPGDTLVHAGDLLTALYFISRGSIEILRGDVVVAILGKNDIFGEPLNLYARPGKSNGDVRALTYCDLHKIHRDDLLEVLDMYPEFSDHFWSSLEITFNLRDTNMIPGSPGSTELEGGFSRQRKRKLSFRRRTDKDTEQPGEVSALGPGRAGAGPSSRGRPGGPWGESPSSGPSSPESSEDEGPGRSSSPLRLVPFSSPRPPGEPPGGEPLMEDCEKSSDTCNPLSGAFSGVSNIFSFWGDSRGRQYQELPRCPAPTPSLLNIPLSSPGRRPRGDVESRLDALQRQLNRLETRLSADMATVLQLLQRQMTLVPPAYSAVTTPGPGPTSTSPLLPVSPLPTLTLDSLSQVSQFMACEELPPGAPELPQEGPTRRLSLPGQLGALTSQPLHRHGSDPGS
metric: IC20 (µM)
Number in µM, nothing else.

compound	unit_descriptor	IC20
C[C@@H]1CN(c2ccc(C#N)c3ncccc23)C[C@H](CN2CCN(c3ccc4c(n3)CNCC4)CC2)O1 [Example 69]	µM	8.65
COc1ccc(N2CCN(C[C@H]3CN(c4ccc(C#N)c5ncccc45)C[C@@H](C)O3)CC2)cc1 [Example R1, reference compound]	µM	0.879

Input line: Which measured IC20 value corresponds to C[C@@H]1CN(c2ccc(C#N)c3ncccc23)C[C@H](CN2CCN(c3ccncc3)CC2)O1 [ER-888286, reference compound] ?
Output line: 0.348
